# TARGET SYSTEM: human MET kinase L1195V (Homo sapiens, UniProt P08581, L1195V)
# Construct: GST-tagged recombinant human MET kinase domain
# Sequence (P08581 1078-1345 L1195V limits assumed): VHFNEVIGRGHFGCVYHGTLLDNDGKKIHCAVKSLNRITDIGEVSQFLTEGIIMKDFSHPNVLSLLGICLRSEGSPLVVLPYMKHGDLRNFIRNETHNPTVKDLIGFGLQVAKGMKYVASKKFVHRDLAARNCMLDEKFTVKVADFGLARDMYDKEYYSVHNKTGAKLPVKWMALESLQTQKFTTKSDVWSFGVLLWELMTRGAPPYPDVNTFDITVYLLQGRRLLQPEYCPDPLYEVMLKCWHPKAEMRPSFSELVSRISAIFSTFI
# ASSAY EXPLANATION: c-Met Enzyme Assay, L1195V mutant
# MEASUREMENT PARAMETERS: averaged IC50; L1195V 10 nM; 60-minute incubation at 22° C.
pIC50: −log10 of the molar value.
MEASURED PROPERTY: pIC50

A selection of reference data follows.
COMPOUND: COc1cc2nccc(Oc3ccc(NC(=O)c4cn(CC(=O)N(C)C)cc(-c5ccc(F)cc5)c4=O)nc3)c2cc1OC [Example 23]
TARGET SYSTEM: human MET kinase L1195V (Homo sapiens, UniProt P08581, L1195V)
pIC50: 7.40

COMPOUND: COc1cc2nccc(Oc3ccc(NC(=O)c4cn(C(C)C)cc(-c5ccc(F)cc5OC)c4=O)nc3)c2cc1OC [Example 32]
TARGET SYSTEM: human MET kinase L1195V (Homo sapiens, UniProt P08581, L1195V)
pIC50: 7.35

COMPOUND: COc1cc2nccc(Oc3ccc(NC(=O)c4cn(CCN(C)C)cc(-c5ccc(Cl)cc5)c4=O)nc3)c2cc1OC [Example 42]
TARGET SYSTEM: human MET kinase L1195V (Homo sapiens, UniProt P08581, L1195V)
pIC50: 8.09

COMPOUND: COc1cc2nccc(Oc3ccc(NC(=O)c4cn(CC(C)C)cc(-c5ccc(F)cc5)c4=O)nc3)c2cc1OC [Example 11]
TARGET SYSTEM: human MET kinase L1195V (Homo sapiens, UniProt P08581, L1195V)
pIC50: 7.67

COMPOUND: COc1ccc2nccc(Oc3ccc(NC(=O)c4cn(C)cc(-c5ccc(F)cc5)c4=O)nc3)c2c1 [Example 41]
TARGET SYSTEM: human MET kinase L1195V (Homo sapiens, UniProt P08581, L1195V)
pIC50: 5.65

COMPOUND: COc1cc2nccc(Oc3ccc(NC(=O)c4cn(CCN(C)C)cc(-c5ccc(F)c(F)c5)c4=O)nc3)c2cc1OC [Example 43]
TARGET SYSTEM: human MET kinase L1195V (Homo sapiens, UniProt P08581, L1195V)
pIC50: 7.85

a. COc1cc2nccc(Oc3ccc(NC(=O)c4cn(C(C)C)cc(-c5ccc(F)cc5)c4=O)nc3)c2cc1OC [Example 1]
b. COc1cc2nccc(Oc3ccc(NC(=O)c4cn(CCC(C)C)cc(-c5ccc(F)c(F)c5)c4=O)nc3)c2cc1OC [Example 35]
c. COc1cc2nccc(Oc3ccc(NC(=O)c4cn(C(C)C)cc(-c5ccc(F)cc5F)c4=O)nc3)c2cc1OC [Example 4]
Query: Would you mind ranking these compounds by ascending pIC50? // list labels; follow requested order
Result: b, c, a

1. COc1cc2c(Oc3ccc(NC(=O)c4cn(C(C)C)c(C)c(-c5ccc(F)cc5)c4=O)nc3)ccnc2cc1F [Example 48]
2. CCCC(CCC)n1cc(C(=O)Nc2ccc(Oc3ccnc4cc(OC)c(OC)cc34)cn2)c(=O)c(-c2ccc(F)cc2F)c1 [Example 17]
3. COc1ccc2nccc(Oc3ccc(NC(=O)c4cn(CCN(C)C)cc(-c5ccc(F)cc5)c4=O)nc3)c2c1 [Example 47]
4. CCc1c(-c2ccc(F)cc2)c(=O)c(C(=O)Nc2ccc(Oc3ccnc4cc(OC)c(OC)cc34)cn2)cn1C(C)C [Example 29]
Query: Would you mind ranking these compounds by ascending pIC50? // list labels; follow requested order
Result: 3, 2, 1, 4

1. COc1cc2nccc(Oc3ccc(NC(=O)c4cn(C)cc(-c5ccc(F)cc5)c4=O)nc3)c2cc1OC [Example 2]
2. COc1cc2nccc(Oc3ccc(NC(=O)c4cn(C(C)C)cc(-c5ccc(F)cc5Cl)c4=O)nc3)c2cc1OC [Example 18]
3. COc1cc2c(Oc3ccc(NC(=O)c4cn(C(C)C)cc(-c5ccc(F)cc5)c4=O)nc3)ccnc2cc1F [Example 49]
4. COc1ccc(-c2cn(C(C)C)cc(C(=O)Nc3ccc(Oc4ccnc5cc(OC)c(OC)cc45)cn3)c2=O)cc1 [Example 30]
Query: Would you mind ranking these compounds by ascending pIC50? // list labels; follow requested order
Result: 3, 1, 4, 2
